binders and their reported relative MFI (fold over isotype control)
Assay System: Chimeric OX40 construct 1548 (human; mouse) (UniProt P43489)
Sequence (P43489 other isoform, or with tags, fused parts or gaps mutant, form in doubt): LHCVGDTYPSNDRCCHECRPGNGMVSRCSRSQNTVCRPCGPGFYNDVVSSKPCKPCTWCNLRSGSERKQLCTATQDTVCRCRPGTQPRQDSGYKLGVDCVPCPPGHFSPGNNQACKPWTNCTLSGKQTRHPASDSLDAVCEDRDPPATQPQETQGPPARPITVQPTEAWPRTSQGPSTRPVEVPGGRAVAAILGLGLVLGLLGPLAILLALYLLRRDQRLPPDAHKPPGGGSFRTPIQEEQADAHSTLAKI
Method Description: flow cytometry, 293-F cells transfected with the construct
Please reply with the value in numeric form only.

Record request: relative MFI (fold over isotype control) value, item 1526/1527 (antibody, V domains shown) VH: EVQLLESGGGLVQPGGSLRLSCAASGFTFSGYSMYWVRQAPGKGLEWVSGIGYSGYGTYYADSVKGRFTISRDNSKNTLYLQMNSLRAEDTAVYYCARYYFHDYAAYSLDYWGQGTLVTVSS VL: DIQMTQSPSSLSASVGDRVTITCRASQSISSYLNWYQQKPGKAPKLLIYAASSLQSGVPSRFSGSGSGTDFTLTISSLQPEDFATYYCQQYGSDSLLTFGQGTKLEIK
12.7

Next:
Record request: relative MFI (fold over isotype control) value, item 1524/1525 (antibody, V domains shown) VH: EVQLLESGGGLVQPGGSLRLSCAASGFTFGSYYMGWVRQAPGKGLEWVSSIGSYYGYTYYADSVKGRFTISRDNSKNTLYLQMNSLRAEDTAVYYCARHDYGALDYWGQGTLVTVSS VL: DIQMTQSPSSLSASVGDRVTITCRASQSISSYLNWYQQKPGKAPKLLIYAASSLQSGVPSRFSGSGSGTDFTLTISSLQPEDFATYYCQQYGPSGLFTFGQGTKLEIK
15.4

Record request: relative MFI (fold over isotype control) value, item 1166/1167 (antibody, V domains shown) VH: EVQLLESGGGLVQPGGSLRLSCAASGFTFGGYYMSWVRQAPGKGLEWVSAISGSGGSTYYADSVKGRFTISRDNSKNTLYLQMNSLRAEDTAVYYCARYDYASMDYWGQGTLVTVSS VL: DIQMTQSPSSLSASVGDRVTITCRASQSISSYLNWYQQKPGKAPKLLIYAASSLQSGVPSRFSGSGSGTDFTLTISSLQPEDFATYYCQQYYWYGLSTFGQGTKLEIK
15.8

Record request: relative MFI (fold over isotype control) value, item 1514/1515 (antibody, V domains shown) VH: EVQLLESGGGLVQPGGSLRLSCAASGFTFGYYYMSWVRQAPGKGLEWVSGISSYGSYTYYADSVKGRFTISRDNSKNTLYLQMNSLRAEDTAVYYCARSGYSNWANSFDYWGQGTLVTVSS VL: DIQMTQSPSSLSASVGDRVTITCRASQSISSYLNWYQQKPGKAPKLLIYAASSLQSGVPSRFSGSGSGTDFTLTISSLQPEDFATYYCQQGDYTLFTFGQGTKLEIK
17.2
